# measurement.target: T1, recombinant human CD73 extracellular domain (Trp27-Lys546) with C-terminal 6-histidine tag (human, UniProt P21589 27-547)
# T1 construct: also called hCD73; hCD73-cHis
# T1 sequence: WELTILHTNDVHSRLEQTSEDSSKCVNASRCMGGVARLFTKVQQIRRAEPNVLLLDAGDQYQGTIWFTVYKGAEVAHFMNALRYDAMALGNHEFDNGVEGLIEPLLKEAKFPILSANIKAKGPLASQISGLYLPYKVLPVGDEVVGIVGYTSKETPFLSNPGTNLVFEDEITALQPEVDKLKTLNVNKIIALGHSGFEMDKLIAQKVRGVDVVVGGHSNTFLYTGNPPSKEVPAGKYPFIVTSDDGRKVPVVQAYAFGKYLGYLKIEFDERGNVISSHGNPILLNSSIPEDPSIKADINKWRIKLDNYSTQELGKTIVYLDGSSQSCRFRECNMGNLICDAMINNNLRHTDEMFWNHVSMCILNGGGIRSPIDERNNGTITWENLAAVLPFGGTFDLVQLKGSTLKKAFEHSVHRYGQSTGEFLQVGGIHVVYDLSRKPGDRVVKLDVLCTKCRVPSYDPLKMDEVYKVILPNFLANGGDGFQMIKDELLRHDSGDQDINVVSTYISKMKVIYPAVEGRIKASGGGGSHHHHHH
# procedure.details: SPR, Biacore T200, antibody captured on Protein A chip, hCD73 ECD as analyte, 1:1 Langmuir
Please provide measured Kd for the entries that follow.
Record the result as number plus unit.

A selection of reference data follows.
binder: humanized anti-CD73 antibody 6G8 VH-v1/VK-v1 (antibody, V domains shown, Human IgG1 CH1-CH3 constant region and kappa constant region; also called hu6G8 VHv1 + hu6G8 Vkv1) VH: QVTLRESGPALVKPTQTLTLTCTFSGFSLSTSGMGVGWIRQPPGKALEWLAHIWWDDDKYYNPSLKSRLTISKDTSKNQVVLTMTNMDPVDTATYYCARRERWAWFAYWGQGTLVTVSS VL: DIQMTQSPSSLSASVGDRVTITCRASQNVFTNVAWYQQKPGKAPKVLIYSASYRYSGVPSRFSGSGSGTDFTLTISSLQPEDFATYFCQQYNSYPTFGQGTKLEIK
Kd: 0.272 nM
--
binder: humanized anti-CD73 antibody 22C12 VH-v9/Vk-v2 (antibody, V domains shown, Human IgG1 CH1-CH3 constant region and kappa constant region; also called hu22C12 VHv9 (printed hu22C12V11v9) + hu22C12 Vkv2) VH: QVQLVQSGAEVKKPGASVKVSCKASGYTFTGYWIQWVRQAPGQGLEWMGAIYPGDSDTRYTQKFQGRVTMTADTSISTAYMELSRLRSDDTAVYYCARGNWDDWDFDVWGQGTTVTVSS VL: DIQMTQSPSSLSASVGDRVTITCRASQDISNYLNWYQQKPGKAPKLLIHYTSRLHSGVPSRFSGSGSGTDYTLTISSLQPEDFATYYCQQGDTLPWTFGQGTKVEIK
Kd: 0.135 nM

# next binder below
Find the measured Kd of humanized anti-CD73 antibody 6G8 VH-v8/VK-v4 (antibody, V domains shown, Human IgG1 CH1-CH3 constant region and kappa constant region; also called hu6G8 VHv8 + hu6G8 VkV4) VH: QVTLRESGPALVKPTQTLTLTCTFSGFSLSTSGMGVGWIRQPPGKALEWLAHIWWDEDKYYNPSLKSRLTISKDTSKNQVVLTMTNMDPVDTATYYCARRERWAWFAYWGQGTLVTVSS VL: EIVMTQSPATLSVSPGERATLSCRASQNVFTNVAWYQQKPGQAPRVLIYSASYRYSGIPARFSGSGSGTEFTLTISSLQSEDFAVYFCQQYNSYPTFGQGTKLEIK and report it. 0.257 nM
